TARGET OR TEST SYSTEM: cellular IDO1 in HeLa cells (Homo sapiens)
Construct: endogenous in cells; host or cells: HeLa cells (American Type Tissue Culture Collection), induced with human recombinant IFN-γ
PROTOCOL: HeLa cell-based IDO1 Kyn (kynurenine) production assay
MEASUREMENT PARAMETERS: Table 1, 5-substituted imidazo[1,5-a]pyridines, IFN-γ 100 ng/mL, 48 hours
pEC50: −log10 of the molar value.
Label 1 (yes) when pEC50 >= 6; otherwise 0 (no).

- COMPOUND: "OC(c1cccc2cncn12)C1CCCCC1 (single isomer, unassigned) [Example A001a]"
  CLASSIFICATION: "0 (no)"
- COMPOUND: "OC(c1c(I)ccc2cncn12)C1CCCCC1 (single isomer, unassigned) [Example A125b]"
  CLASSIFICATION: "0 (no)"
- COMPOUND: "O[C@H](c1cc(Cl)cc2cncn12)C1CCCCC1 [Example A101a]"
  CLASSIFICATION: "1 (yes)"
- COMPOUND: "OC(c1c(Cl)c(Br)cc2cncn12)C1CCCC1 (stereo not drawn)"
  CLASSIFICATION: "0 (no)"

Is it the case that OC(c1cc(C(F)(F)F)cc2cncn12)C1CCCC1 (stereo not drawn) has pEC50 reaching or exceeding 6?
0 (no)

Is it the case that OC(c1c(F)c(Cl)cc2cncn12)C1CCCCC1 (stereo not drawn) has pEC50 reaching or exceeding 6?
0 (no)

Is it the case that OC(CC1CCCCC1)c1c(Cl)ccc2cncn12 (single isomer, unassigned) [Example A117b] has pEC50 reaching or exceeding 6?
0 (no)

Is it the case that OC(CC1CCCCC1)c1c(Cl)c(Cl)cc2cncn12 (single isomer, unassigned) [Example A144b] has pEC50 reaching or exceeding 6?
1 (yes)

Is it the case that OC(c1ccc(F)c2cncn12)C1CCCCC1 (stereo not drawn) has pEC50 reaching or exceeding 6?
0 (no)

Is it the case that OC(c1ccc(F)cc1)c1cccc2cncn12 (stereo not drawn) has pEC50 reaching or exceeding 6?
0 (no)

====

TARGET OR TEST SYSTEM: cellular IDO1 in HeLa cells (Homo sapiens)
Construct: endogenous in cells; host or cells: HeLa cells (American Type Tissue Culture Collection), induced with human recombinant IFN-γ
PROTOCOL: HeLa cell-based IDO1 Kyn (kynurenine) production assay
MEASUREMENT PARAMETERS: Table 2, 8-substituted imidazo[1,5-a]pyridines, IFN-γ 100 ng/mL, 48 hours
The entries below come with measured EC50 values attached.
Write down the numeric answer in µM and omit the unit.

- COMPOUND: "OC(c1c(C(F)(F)F)ccn2cncc12)C1CCCCC1 (stereo not shown)"
  VALUE TYPE: "EC50"
  RECORDED RESULT: 0.415
- COMPOUND: "OC(c1c(C2CC2)ccn2cncc12)C1CCCC1 (stereo not shown)"
  VALUE TYPE: "EC50"
  RECORDED RESULT: 0.94
- COMPOUND: "CC(C)c1ccn2cncc2c1C(O)CC1CCCCC1 (stereo not shown)"
  VALUE TYPE: "EC50"
  RECORDED RESULT: 0.389
- COMPOUND: "OC(c1c(C2CC2)ccn2cncc12)C1CCCCC1 (stereo not shown) [Example B107]"
  VALUE TYPE: "EC50"
  RECORDED RESULT: 0.256

# next compound below
Supply recorded EC50 for Cc1ccn2cncc2c1C(O)C1CCCCC1 (stereo not shown) [Example B102] here.
1.56

====

TARGET OR TEST SYSTEM: Recombinant TDO (Homo sapiens)
Construct: His tag (C); made in house; host or cells: E. coli
Sequence (P48775 whole entry): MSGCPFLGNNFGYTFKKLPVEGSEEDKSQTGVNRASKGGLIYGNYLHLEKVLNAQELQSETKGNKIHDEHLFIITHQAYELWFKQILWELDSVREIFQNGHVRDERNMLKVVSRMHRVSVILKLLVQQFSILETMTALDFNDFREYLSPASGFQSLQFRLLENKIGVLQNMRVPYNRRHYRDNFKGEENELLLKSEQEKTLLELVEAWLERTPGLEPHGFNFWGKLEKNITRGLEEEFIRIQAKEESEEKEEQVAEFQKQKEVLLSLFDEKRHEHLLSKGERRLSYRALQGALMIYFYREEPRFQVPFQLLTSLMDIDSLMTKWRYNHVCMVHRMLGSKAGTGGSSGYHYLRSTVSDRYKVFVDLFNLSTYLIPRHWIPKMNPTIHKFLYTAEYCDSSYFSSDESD
PROTOCOL: TDO enzymatic assay
Type: biochemical
MEASUREMENT PARAMETERS: Table 1, 5-substituted imidazo[1,5-a]pyridines; 100 nM TDO, 0.5 mM L-tryptophan; read-out: Enzyme IC50 (nM) TDO
VALUE TYPE: IC50 (nM)
Write down the numeric answer in nM and omit the unit.

Here is how some compounds turned out for IC50.
- COMPOUND: "OC(CC1CCCCC1)c1cc(C(F)(F)F)cc2cncn12 (stereo not shown) [Example A114]"
  UNIT TEXT: "nM"
  RECORDED RESULT: 420
- COMPOUND: "OC(c1cc(Cl)cc2cncn12)C1CCCC1 (stereo not shown)"
  UNIT TEXT: "nM"
  RECORDED RESULT: 22
- COMPOUND: "OC(c1c(C2CC2)ccc2cncn12)C1CCCCC1 (single isomer, unassigned) [Example A129b]"
  UNIT TEXT: "nM"
  RECORDED RESULT: 37000
- COMPOUND: "OC(c1cc(C(F)(F)F)cc2cncn12)C1CCCCC1 (single isomer, unassigned) [Example A109a]"
  UNIT TEXT: "nM"
  RECORDED RESULT: 97
- COMPOUND: "OC(c1c(Cl)ccc2cncn12)C1CCCCC1 (single isomer, unassigned) [Example A116a]"
  UNIT TEXT: "nM"
  RECORDED RESULT: 610

# next compound below
Supply recorded IC50 for OC(c1c(Cl)c(Br)cc2cncn12)C1CCCCC1 (stereo not shown) here.
420

====

TARGET OR TEST SYSTEM: Recombinant IDO1 (Homo sapiens, UniProt P14902)
Construct: His tag (N); made in house; host or cells: E. coli
Sequence (P14902 whole entry): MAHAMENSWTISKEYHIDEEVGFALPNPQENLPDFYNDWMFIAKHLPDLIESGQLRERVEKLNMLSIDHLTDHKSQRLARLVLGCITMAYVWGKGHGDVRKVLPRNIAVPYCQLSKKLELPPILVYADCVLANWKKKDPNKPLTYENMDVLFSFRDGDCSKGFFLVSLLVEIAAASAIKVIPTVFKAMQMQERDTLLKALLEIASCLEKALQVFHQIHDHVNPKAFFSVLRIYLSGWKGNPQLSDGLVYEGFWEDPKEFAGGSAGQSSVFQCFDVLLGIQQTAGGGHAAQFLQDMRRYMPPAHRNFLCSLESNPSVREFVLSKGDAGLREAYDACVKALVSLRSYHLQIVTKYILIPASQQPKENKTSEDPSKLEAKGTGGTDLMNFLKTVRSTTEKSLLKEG
PROTOCOL: IDO1 enzymatic assay
Format: biochemical
MEASUREMENT PARAMETERS: Table 1, 5-substituted imidazo[1,5-a]pyridines; 50 nM IDO1, 1.3 mM D-tryptophan; read-out: Enzyme IC50 (nM) IDO1
The entries below come with measured IC50 values attached.
Write down the numeric answer in nM and omit the unit.

Supply recorded IC50 for OC(CC1CCCCC1)c1c(Cl)ccc2cncn12 (single isomer, unassigned) [Example A117a] here.
11

Supply recorded IC50 for OC(CC1CCCCC1)c1cc(Cl)cc2cncn12 (single isomer, unassigned) [Example A102b] here.
510

Supply recorded IC50 for OC(CC1CCCCC1)c1cc(C(F)(F)F)cc2cncn12 (single isomer, unassigned) [Example A114b] here.
74

====

TARGET OR TEST SYSTEM: Recombinant IDO1 (Homo sapiens)
Construct: His tag (N); made in house; host or cells: E. coli
PROTOCOL: IDO1 enzymatic assay
Format: biochemical
MEASUREMENT PARAMETERS: Table 1, 5-substituted imidazo[1,5-a]pyridines; 50 nM IDO1, 1.3 mM D-tryptophan; read-out: Enzyme IC50 (nM) IDO1
The following ranges of IC50 define the classes used here: class 1 = under 20 nM, class 2 = from 20 nM up to 40 nM, class 3 = 40 nM and over

Worked cases, answers included:
- MOLECULE: "OC(c1c(C2CC2)ccc2cncn12)C1CCCCC1 (stereo not shown) [Example A129]"
  TARGET OR TEST SYSTEM: "Recombinant IDO1 (Homo sapiens)"
  CLASSIFICATION: "class 2"
- MOLECULE: "OC(CC1CCCCC1)c1c(C2CC2)ccc2cncn12 (stereo not shown) [Example A139]"
  TARGET OR TEST SYSTEM: "Recombinant IDO1 (Homo sapiens)"
  CLASSIFICATION: "class 2"
- MOLECULE: "O[C@H](c1cc(Cl)cc2cncn12)C1CCCCC1 [Example A101a]"
  TARGET OR TEST SYSTEM: "Recombinant IDO1 (Homo sapiens)"
  CLASSIFICATION: "class 1"
- MOLECULE: "OC(CC1CCCCC1)c1cc(Cl)cc2cncn12 (stereo not shown) [Example A102]"
  TARGET OR TEST SYSTEM: "Recombinant IDO1 (Homo sapiens)"
  CLASSIFICATION: "class 3"
- MOLECULE: "OCC1(C(O)c2cc(Cl)cc3cncn23)CCCCC1 (stereo not shown)"
  TARGET OR TEST SYSTEM: "Recombinant IDO1 (Homo sapiens)"
  CLASSIFICATION: "class 3"
- MOLECULE: "CN1CCC(C(O)c2cccc3cncn23)CC1 (stereo not shown)"
  TARGET OR TEST SYSTEM: "Recombinant IDO1 (Homo sapiens)"
  CLASSIFICATION: "class 3"

Which IC50 band matches OC(c1c(C2CC2)ccc2cncn12)C1CCCC1 (stereo not shown) ?
class 2

Which IC50 band matches OC(c1c(C2CC2)ccc2cncn12)C1CCCCC1 (single isomer, unassigned) [Example A129a] ?
class 1

====

The entries below come with measured EC50 values attached.
TARGET OR TEST SYSTEM: cellular IDO1 in HeLa cells (Homo sapiens, UniProt P14902)
Construct: endogenous in cells; host or cells: HeLa cells (American Type Tissue Culture Collection), induced with human recombinant IFN-γ
Sequence (P14902 whole entry): as above
PROTOCOL: HeLa cell-based IDO1 Kyn (kynurenine) production assay
MEASUREMENT PARAMETERS: Table 1, 5-substituted imidazo[1,5-a]pyridines, IFN-γ 100 ng/mL, 48 hours

Supply recorded EC50 for OC(c1cccc2cncn12)C1CCCCC1 (stereo not drawn) [Example A001] here.
> 10 µM

Supply recorded EC50 for OC(CC1CCCCC1)c1c(Cl)c(Cl)cc2cncn12 (single isomer, unassigned) [Example A144a] here.
> 10 µM

Supply recorded EC50 for OC(c1cccc2cncn12)C1CCCCCC1 (stereo not drawn) here.
> 10 µM
